# Tested on: EKO-35
# Type: cell-based, Escherichia coli
# reported_conditions: EKO-35; NMP + antibiotic
// FICI lookup, one value per entry
measured_quantity: FICI

> print(dat)
                                   compound  measured.quantity  assay.result
1  CC[n+]1c(-c2ccccc2)c2cc(N)ccc2c2ccc(N)cc21 [ethidium bromide]               FICI         2.000
2  CC(=O)O[C@H]1C[C@@]2(C)[C@@H](C[C@@H](O)[C@H]3[C@@]4(C)CC[C@@H](O)[C@@H](C)[C@@H]4CC[C@@]32C)/C1=C(\CCC=C(C)C)C(=O)O               FICI         0.625
3  CC(=O)NC[C@H]1CN(c2ccc(N3CCOCC3)c(F)c2)C(=O)O1               FICI         0.531
4  Cc1onc(-c2ccccc2)c1C(=O)N[C@@H]1C(=O)N2[C@@H]1SC(C)(C)[C@@H]2C(=O)O               FICI         0.510

----------
// MIC lookup, one value per entry
# Test system: EKO-35 araC::mexCD (MexCD from P. aeruginosa)
# test_protocol: MIC susceptibility profiling, efflux platform
# Assay type: cell-based, Escherichia coli
# reported_conditions: Table 13B; non-porinated; technical duplicate; read-out: Minimum Inhibitory Concentration, EKO-35 araC::mexCD

compound	test_target	MIC, µg/mL
Cc1onc(-c2ccccc2)c1C(=O)N[C@@H]1C(=O)N2[C@@H]1SC(C)(C)[C@@H]2C(=O)O [oxacillin]	EKO-35 araC::mexCD (MexCD from P. aeruginosa)	20
CCCCCCCCCCCCOS(=O)(=O)[O-].[Na+] [SDS, sodium dodecyl sulphate]	EKO-35 araC::mexCD (MexCD from P. aeruginosa)	1000
C[C@@H]1O[C@@H]1P(=O)(O)O [fosfomycin]	EKO-35 araC::mexCD (MexCD from P. aeruginosa)	1.56
CCn1cc(C(=O)O)c(=O)c2ccc(C)nc21 [nalidixic acid]	EKO-35 araC::mexCD (MexCD from P. aeruginosa)	2.5
NCCCNCCCCNCCCN [Spermine]	EKO-35 araC::mexCD (MexCD from P. aeruginosa)	2000
Nc1ccc(S(=O)(=O)Nc2nccs2)cc1 [Sulfathiazole]	EKO-35 araC::mexCD (MexCD from P. aeruginosa)	10
CO[C@H]1/C=C/O[C@@]2(C)Oc3c(C)c(O)c4c(O)c(c(/C=N/N5CCN(C)CC5)c(O)c4c3C2=O)NC(=O)/C(C)=C\C=C\[C@H](C)[C@H](O)[C@@H](C)[C@@H](O)[C@@H](C)[C@H](OC(C)=O)[C@@H]1C [rifampicin]	EKO-35 araC::mexCD (MexCD from P. aeruginosa)	3.12
CN[C@@H]1[C@H](O)[C@H](NC)[C@H]2O[C@@]3(O)C(=O)C[C@@H](C)O[C@H]3O[C@@H]2[C@H]1O [Spectinomycin]	EKO-35 araC::mexCD (MexCD from P. aeruginosa)	25
CN(C)c1ccc(O)c2c1C[C@H]1C[C@H]3[C@H](N(C)C)C(O)=C(C(N)=O)C(=O)[C@@]3(O)C(O)=C1C2=O [minocycline]	EKO-35 araC::mexCD (MexCD from P. aeruginosa)	0.049
CC[C@H]1OC(=O)[C@H](C)[C@@H](O[C@H]2C[C@@](C)(OC)[C@@H](O)[C@H](C)O2)[C@H](C)[C@@H](O[C@@H]2O[C@H](C)C[C@H](N(C)C)[C@H]2O)[C@](C)(O)C[C@@H](C)CN(C)[C@H](C)[C@@H](O)[C@]1(C)O [azithromycin]	EKO-35 araC::mexCD (MexCD from P. aeruginosa)	3.12
NC[C@H]1O[C@H](O[C@H]2[C@H](O)[C@@H](O[C@H]3O[C@H](CO)[C@@H](O)[C@H](N)[C@H]3O)[C@H](N)C[C@@H]2N)[C@H](O)[C@@H](O)[C@@H]1O [kanamycin]	EKO-35 araC::mexCD (MexCD from P. aeruginosa)	1.56
COc1cccc2c1C(=O)c1c(O)c3c(c(O)c1C2=O)C[C@@](O)(C(C)=O)C[C@@H]3O[C@H]1C[C@H](N)[C@H](O)[C@H](C)O1 [daunorubicin]	EKO-35 araC::mexCD (MexCD from P. aeruginosa)	100
CC[C@H]1OC(=O)[C@H](C)[C@@H](O[C@H]2C[C@@](C)(OC)[C@@H](O)[C@H](C)O2)[C@H](C)[C@@H](O[C@@H]2O[C@H](C)C[C@H](N(C)C)[C@H]2O)[C@](C)(O)C[C@@H](C)C(=O)[C@H](C)[C@@H](O)[C@]1(C)O [erythromycin]	EKO-35 araC::mexCD (MexCD from P. aeruginosa)	25
CC[n+]1c(-c2ccccc2)c2cc(N)ccc2c2ccc(N)cc21 [ethidium bromide]	EKO-35 araC::mexCD (MexCD from P. aeruginosa)	1.56
O=C(N[C@H](CO)[C@H](O)c1ccc([N+](=O)[O-])cc1)C(Cl)Cl [chloramphenicol]	EKO-35 araC::mexCD (MexCD from P. aeruginosa)	0.781
CN(C)[C@@H]1C(O)=C(C(N)=O)C(=O)[C@@]2(O)C(O)=C3C(=O)c4c(O)cccc4[C@@](C)(O)[C@H]3C[C@@H]12 [tetracycline]	EKO-35 araC::mexCD (MexCD from P. aeruginosa)	0.195
CN[C@H](CC(C)C)C(=O)N[C@H]1C(=O)N[C@@H](CC(N)=O)C(=O)N[C@H]2C(=O)N[C@H]3C(=O)N[C@H](C(=O)N[C@H](C(=O)O)c4cc(O)cc(O)c4-c4cc3ccc4O)[C@H](O)c3ccc(c(Cl)c3)Oc3cc2cc(c3O[C@@H]2O[C@H](CO)[C@@H](O)[C@H](O)[C@H]2O[C@H]2C[C@](C)(N)[C@H](O)[C@H](C)O2)Oc2ccc(cc2Cl)[C@H]1O [vancomycin]	EKO-35 araC::mexCD (MexCD from P. aeruginosa)	200

The values you see were collected from patent US20230407243A1.
